assay: gradient 5% acetonitrile 3 min, to 50% in 2 min, to 85% in 15 min, held 3 min, 100 µL/min
condition parameters: column: Zorbax Extend-C18 2.1 x 50 mm; eluents: water / acetonitrile, 0.1% formic acid
Below, each entry is listed alongside its reported RP-LC retention time.
assay metric: RP-LC retention time

- compound: "COc1cccc(N2CCN(c3ccc(-c4nc(-c5ccccc5)no4)cn3)CC2)c1"
  measured value: "1410 s"
- compound: "COc1ccc(-c2ncn3c2C(=O)N(CC(=O)O)CC3)cc1"
  measured value: "567 s"
- compound: "CCc1ccc(NC(=O)Cn2c(=O)c(CCC(=O)NCC(C)C)nc3ccccc32)cc1"
  measured value: "878 s"
- compound: "Cc1cc(C)cc(N2C(=O)CN(S(=O)(=O)c3ccccc3)CC2(C)C(=O)NC2CCCC2)c1 (stereo unspecified)"
  measured value: "968 s"
- compound: "O=C(C1CCCN(Cc2nc(-c3cccnc3)no2)C1)N1CCc2ccccc21 (stereo unspecified)"
  measured value: "595 s"
- compound: "O=C(C1CCN(c2ccc(Sc3ccc(Cl)cc3)nn2)CC1)N1CCN(c2ccccn2)CC1"
  measured value: "644 s"
- compound: "COc1ccc(-c2nc(COc3cc(C)c4c(C)nn(C)c4n3)c(C)o2)cc1"
  measured value: "1120 s"
- compound: "CN1c2ccc(Cl)cc2C(=O)NC12CCN(C(=O)c1ccccc1)CC2"
  measured value: "793 s"
- compound: "CCn1cc(-c2nc(C(=O)Nc3ccc(F)cc3F)cs2)c2cccnc21"
  measured value: "1220 s"
- compound: "Cn1nc(-c2nc(-c3cccc(F)c3)no2)c2c1CCN(C(=O)C1CCCO1)C2 (stereo unspecified)"
  measured value: "789 s"
- compound: "Cc1cc(OCC(=O)Nc2ccccc2)nc(N2CCN(c3ccccc3)CC2)n1"
  measured value: "804 s"
